tested on: Saccharomyces cerevisiae; assay: protein stability index of tFT-peptide fusion in wild type (PSI (0-1 scale)); higher = more stable (slower turnover); conditions: genetic background: wild type
assay-metric: protein stability index

Look over these answered cases.
{"columns": ["macromolecule-sequence", "protein stability index"],
 "data": [
  ["PDKRNHLIKLLNV", 0.203],
  ["PDKRNHLIKGLN", 0.546],
  ["RKHKKGQKQKIN", 0.121],
  ["AITMPMCPLLLR", 0.285],
  ["ARWRVPLWRGAS", 0.646],
  ["GLYMCSVGCWFRH", 0.271]
]}

Exam item: Returns the measured protein stability index for the input sequence. Input: RVTRQDAIYFRI
Marked response: 0.553

Exam item: Query RLFQPLPVQFLN next
Marked response: 0.034

Exam item: Query PDKRNDLIKLLN next
Marked response: 0.184

Exam item: Query KKMKKGQKQKIN next
Marked response: 0.0965

Exam item: Query KKHKKGQSQKIN next
Marked response: 0.204

###

system: Saccharomyces cerevisiae; experiment: protein stability index of tFT-peptide fusion (C-terminal peptide) (PSI (0-1 scale)); higher = more stable (slower turnover); details: genetic background: wild type; temperature: 30 C
assay-metric: protein stability index
Lab note: write the figure by itself, no unit.

Look over these answered cases.
{"columns": ["macromolecule-sequence", "protein stability index"],
 "data": [
  ["LTFPILPVSTRV", 0.603],
  ["PRPAAPSPPPLP", 0.588]
]}

Now examine the next entry.
Exam item: Returns the measured protein stability index for the input sequence. Input: YAAQLGLGVLVG
Marked response: 0.6

###

system: Saccharomyces cerevisiae; test: protein stability index of tFT-peptide fusion in deletion strain of DOA10 (PSI (0-1 scale)); higher = more stable (slower turnover)
Property: protein stability index; scope: individual sequences
Lab note: write the figure by itself, no unit.

Look over these answered cases.
{"columns": ["macromolecule-sequence", "protein stability index"],
 "data": [
  ["RVTRLDAIYFRIY", 0.242],
  ["CLVSLPILDFFR", 0.678]
]}

Exam item: Returns the measured protein stability index for the input sequence. Input: RSLWVLLPLYFR
Marked response: 0.605

Exam item: Query GLYMCSVGCVFR next
Marked response: 0.627

Exam item: Query AITLPMCPLLLR next
Marked response: 0.649

Exam item: Query AITMPMCPLLLR next
Marked response: 0.677

###

test system: Saccharomyces cerevisiae; test: protein stability index of tFT-peptide fusion (C-terminal peptide) (PSI (0-1 scale)); higher = more stable (slower turnover); details: genetic background: wild type; temperature: 30 C
assay-metric: protein stability index
Lab note: write the figure by itself, no unit.

Look over these answered cases.
{"columns": ["macromolecule-sequence", "assay-metric", "observed-result"],
 "data": [
  ["AGGGGGVTASGA", "protein stability index", 0.71],
  ["WSDGGRGGGWGK", "protein stability index", 0.656],
  ["PSPPPPPRSFLH", "protein stability index", 0.649],
  ["RFCLLFVVAGGV", "protein stability index", 0.457]
]}

Now examine the next entry.
Exam item: Returns the measured protein stability index for the input sequence. Input: PPPPPTPSTRTS
Marked response: 0.667

###

test system: Saccharomyces cerevisiae; assay: protein stability index of tFT-peptide fusion (C-terminal peptide) (PSI (0-1 scale)); higher = more stable (slower turnover); conditions: genetic background: cdc53-1; temperature: 37 C
# binarize protein stability index: threshold 0.4 inclusive, high side 1.0, low side 0.0

Solved cases (2 shown):
{"columns": ["macromolecule-sequence", "answer-label"],
 "data": [
  ["RILSLQFILCKR", 1.0],
  ["CSSSNRRRYFVL", 1.0]
]}

// switching to the query sequence
Exam item: Would you say FCFYLLFLGFTR shows protein stability index at minimum 0.4?
Marked response: 1.0
